# Test system: NCI-H510 multicellular tumor spheroid growth, % test/control
# assay_notes: Anticancer human tumor NCI-H510 cell line growth inhibition [Asc];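 also: spheroids exposed to agents for 7 days; 100% = DMSO vehicle control wells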
# run_parameters: second compound 0.316 µM; first compound 0.1 µM; stronger effect = lower value
quantity_kind: viability, T/C

compound="C=CC(=O)N1CCN(c2nc(=O)n(-c3c(C)ccnc3C(C)C)c3nc(-c4c(O)cccc4F)c(F)cc23)C(C)C1 (centres undefined) + Cc1c(S(C)(=O)=O)c(-c2cc(F)cc(N3CCN(c4ccc(NS(=O)(=O)c5ccc(NC(CCN6CCC(C(=O)OCCCP(=O)(O)O)CC6)CSc6ccccc6)c(S(=O)(=O)C(F)(F)F)c5)cc4)CC3)c2)c(-c2ccc(Cl)cc2)n1C(C)C" quantity_kind="viability, T/C" result=103%
compound="C=C(F)C(=O)N1CCN(c2nc(OCC3CCCN3C)nc3c2CCN(c2cccc4cccc(Cl)c24)C3)CC1CC#N (centres undefined) + CNC(C)C(=O)NC1CN(S(=O)(=O)c2cccc(S(=O)(=O)N3CCC4CCC(C(=O)NC(c5ccccc5)c5ccccc5)N4C(=O)C(NC(=O)C(C)NC)C3)c2)CCC2CCC(C(=O)NC(c3ccccc3)c3ccccc3)N2C1=O" quantity_kind="viability, T/C" result=124%
compound="NC1CCC(NC2CC2c2ccccc2)CC1 (centres undefined) + Cc1c(S(C)(=O)=O)c(-c2cc(F)cc(N3CCN(c4ccc(NS(=O)(=O)c5ccc(NC(CCN6CCC(C(=O)OCCCP(=O)(O)O)CC6)CSc6ccccc6)c(S(=O)(=O)C(F)(F)F)c5)cc4)CC3)c2)c(-c2ccc(Cl)cc2)n1C(C)C" quantity_kind="viability, T/C" result=97.9%

Input: Consider the compound CCN1CCN(Cc2ccc(Nc3ncc(F)c(-c4cc(F)c5nc(C)n(C(C)C)c5c4)n3)nc2)CC1 + Cc1c(S(C)(=O)=O)c(-c2cc(F)cc(N3CCN(c4ccc(NS(=O)(=O)c5ccc(NC(CCN6CCC(C(=O)OCCCP(=O)(O)O)CC6)CSc6ccccc6)c(S(=O)(=O)C(F)(F)F)c5)cc4)CC3)c2)c(-c2ccc(Cl)cc2)n1C(C)C and give its measured viability, T/C.
Output: 108%

Input: Here is the next compound: CNC(C)C(=O)NC1CN(S(=O)(=O)c2cccc(S(=O)(=O)N3CCC4CCC(C(=O)NC(c5ccccc5)c5ccccc5)N4C(=O)C(NC(=O)C(C)NC)C3)c2)CCC2CCC(C(=O)NC(c3ccccc3)c3ccccc3)N2C1=O (centres undefined) + Cc1c(S(C)(=O)=O)c(-c2cc(F)cc(N3CCN(c4ccc(NS(=O)(=O)c5ccc(NC(CCN6CCC(C(=O)OCCCP(=O)(O)O)CC6)CSc6ccccc6)c(S(=O)(=O)C(F)(F)F)c5)cc4)CC3)c2)c(-c2ccc(Cl)cc2)n1C(C)C
Output: 102%

Input: Here is the next compound: C=CC(=O)N1CCN(c2nc(=O)n(-c3c(C)ccnc3C(C)C)c3nc(-c4c(O)cccc4F)c(F)cc23)C(C)C1 (centres undefined) + CNC(C)C(=O)NC1CN(S(=O)(=O)c2cccc(S(=O)(=O)N3CCC4CCC(C(=O)NC(c5ccccc5)c5ccccc5)N4C(=O)C(NC(=O)C(C)NC)C3)c2)CCC2CCC(C(=O)NC(c3ccccc3)c3ccccc3)N2C1=O
Output: 113%

Input: Here is the next compound: NC1CCC(NC2CC2c2ccccc2)CC1 (centres undefined) + CNC(C)C(=O)NC1CN(S(=O)(=O)c2cccc(S(=O)(=O)N3CCC4CCC(C(=O)NC(c5ccccc5)c5ccccc5)N4C(=O)C(NC(=O)C(C)NC)C3)c2)CCC2CCC(C(=O)NC(c3ccccc3)c3ccccc3)N2C1=O
Output: 97.8%

Input: Here is the next compound: CCN1CCN(Cc2ccc(Nc3ncc(F)c(-c4cc(F)c5nc(C)n(C(C)C)c5c4)n3)nc2)CC1 + CNC(C)C(=O)NC1CN(S(=O)(=O)c2cccc(S(=O)(=O)N3CCC4CCC(C(=O)NC(c5ccccc5)c5ccccc5)N4C(=O)C(NC(=O)C(C)NC)C3)c2)CCC2CCC(C(=O)NC(c3ccccc3)c3ccccc3)N2C1=O
Output: 115%

Input: Here is the next compound: C#Cc1c(F)ccc2cc(O)cc(-c3ncc4c(N5CC6CCC(C5)N6)nc(OCC56CCCN5CC(F)C6)nc4c3F)c12 (centres undefined) + Cc1c(S(C)(=O)=O)c(-c2cc(F)cc(N3CCN(c4ccc(NS(=O)(=O)c5ccc(NC(CCN6CCC(C(=O)OCCCP(=O)(O)O)CC6)CSc6ccccc6)c(S(=O)(=O)C(F)(F)F)c5)cc4)CC3)c2)c(-c2ccc(Cl)cc2)n1C(C)C
Output: 104%
